experiment: Partition coefficient (logP); format: physicochemical; conditions: octanol/water
Measured logP of individual entries
Lab note: jot the number down without any unit.

The recorded logP for entry COc1cc(CC(C)N)c(OC)cc1C (stereo not given) [DOM] equals 2.24

Further cases:
The recorded logP for entry COc1cc(CC(C)N)c(OC)cc1Br (stereo not given) [BROLAMFETAMINE] equals 2.54

The recorded logP for entry COc1ccc(CC(C)N)cc1OC (stereo not given) equals 1.2

The recorded logP for entry COc1cc(OC)c(OC)cc1CC(C)N (stereo not given) equals 1.1

The recorded logP for entry COc1ccc(OC)c(CC(C)N)c1 (stereo not given) equals 1.72
